// provenance: ChEMBL document CHEMBL1201862

test system: HCT-116; test: NCI tumour cell line growth inhibition, 48 h
Calls of active or inactive are those of the source. Cut-off read from the data, not from the text of the source: active = GI50 up to about 1.1 µM and inactive = higher.
Outcome (select one): T for active, F for inactive

Problem: # outcome recorded in this test, key = COc1ccc2c(c1)C(=O)CC(C(N)=O)C2 (stereo not given)
Result: F

Problem: # outcome recorded in this test, key = COC(=O)/C(C#N)=C1\CCC(Nc2cccc(C(F)(F)F)c2)N1C (stereo not given)
Result: F

Problem: # outcome recorded in this test, key = O=C1/C(=C\c2ccc(Br)cc2)CCCc2ccccc21
Result: F

Problem: # outcome recorded in this test, key = Cc1cc2c(cc1C(=O)CCC(=O)O)CC1(C2)Cc2cc(C)c(C(=O)CCC(=O)O)cc2C1
Result: F

Problem: # outcome recorded in this test, key = CCOc1cc(C2CC(c3ccc(NS(=O)(=O)c4cc([N+](=O)[O-])ccc4C)cc3)=NN2)ccc1O (stereo not given)
Result: F

Problem: # outcome recorded in this test, key = CCN1CCC(O)(c2ccc(Oc3ccc(C)cc3)cc2)C(C(=O)c2ccc(Oc3ccc(C)cc3)cc2)C1 (stereo not given)
Result: F

Problem: # outcome recorded in this test, key = COC(=O)C1CCCN1C(=O)OC(C)(C)C (stereo not given)
Result: F

Problem: # outcome recorded in this test, key = C=COC(=O)N1C2CCCC(Cl)(C(C)=O)C1CC2 (stereo not given)
Result: F

Problem: # outcome recorded in this test, key = C/C(=N\NC(=S)N1CC2CCC(CC2)C1)c1cccc(C)n1
Result: T

Problem: # outcome recorded in this test, key = CC[C@@]1(O)CC(OC2CC(N3CCOCC3)C(O)C(C)O2)c2c(O)c3c(c(O)c2[C@H]1O)C(=O)c1cccc(O)c1C3=O (stereo not given in full)
Result: T

Problem: # outcome recorded in this test, key = Cc1ccc(S(=O)(=O)N/N=C\c2c3ccccc3[n+](C)c3ccccc23)cc1
Result: F

Problem: # outcome recorded in this test, key = COc1ccc(/C=C2/SC(c3c(O)ccc4ccccc34)N(NC(=O)CCCCCCCCC(=O)NN3C(=O)/C(=C\c4ccc(OC)c(OC)c4)SC3c3c(O)ccc4ccccc34)C2=O)cc1OC (stereo not given)
Result: T

Problem: # outcome recorded in this test, key = Cn1nc2ccc3nccc(N(CCO)CCO)c3c2n1
Result: F

Problem: # outcome recorded in this test, key = CCCCC1CCCCCCc2[nH]c(/C=C3\N=C(c4ccc[nH]4)C=C3OC)cc21 (stereo not given)
Result: T

Problem: # outcome recorded in this test, key = O=[N+]([O-])c1cc(C2ON=C(c3ccccc3)N2C23CC4CC(CC(C4)C2)C3)ccc1Cl (stereo not given)
Result: F

Problem: # outcome recorded in this test, key = C[C@H]1CC(=O)C[C@@H]2CC[C@@H]3[C@H](CC[C@]4(C)C(OC(=O)c5cccc6c(=O)c7ccccc7[nH]c56)CC[C@@H]34)[C@]21C (stereo not given in full)
Result: F

Problem: # outcome recorded in this test, key = NS(=O)(=O)c1nnc(NC(=O)C23CC4CC(CC(C4)C2)C3)s1
Result: F

Problem: # outcome recorded in this test, key = O=C(Nc1ccc(/N=N/c2ccccc2)cc1)Sc1ccccc1C(=O)O
Result: F

Problem: # outcome recorded in this test, key = Cc1cccc(C)c1NC(=O)CCC(=O)NNC(=O)c1cc(O)c2ccccc2c1
Result: F

Problem: # outcome recorded in this test, key = COc1cc(-c2cc(-c3ccccc3)nc(-c3c(OC)ccc4c(C)cc(=O)oc34)c2)cc(OC)c1OC
Result: F
